// data source = patent US20140057915A1

Test system: ICAM-1 expression, BEAS2B cells
Experiment: Poly I:C-induced ICAM-1 expression in BEAS2B cells
Assay type: cell-based
Conditions: Homo sapiens, BEAS-2B; read-out: Poly IC induced ICAM1 in BEAS2B, IC50
Each entry below carries its recorded IC50.

- MOLECULE: "COc1ccc(C(=O)NCCO)cc1Nc1nccc(Oc2ccc(NC(=O)Nc3cc(C(C)(C)C)nn3-c3ccc(C)cc3)c3ccccc23)n1 [Example 33]"
  IC50 (nM): 143
- MOLECULE: "Cc1ccc(-n2nc(C(C)(C)C)cc2NC(=O)Nc2ccc(Oc3ccnc(Nc4cc(Br)cc(C(=O)NCCN5CCOCC5)c4)n3)c3ccccc23)cc1 [Example 62]"
  IC50 (nM): 1
- MOLECULE: "COc1ccc(C(=O)NCCN2CCOCC2)cc1Nc1nccc(Oc2ccc(NC(=O)Nc3cc(C(C)(C)C)nn3-c3ccc(C)cc3)c3ccccc23)n1 [Example 31]"
  IC50 (nM): 12
- MOLECULE: "COc1ccc(-n2nc(C(C)C)cc2NC(=O)Nc2ccc(Oc3ccnc(Nc4cc(C(=O)NCCO)ccc4OC)n3)c3ccccc23)cc1 [Example 34]"
  IC50 (nM): 79.9
- MOLECULE: "Cc1ccc(-n2nc(C(C)(C)C)cc2NC(=O)Nc2ccc(Oc3ccnc(Nc4cccc(C(=O)N5CCOCC5)c4)n3)c3ccccc23)cc1 [Example 27]"
  IC50 (nM): 11.6
- MOLECULE: "COc1cc(Nc2cc(Oc3ccc(NC(=O)Nc4cc(C(C)(C)C)nn4-c4ccc(C)cc4)c4ccccc34)ccn2)cc(C(=O)NCCN2CCOCC2)c1 [Example 1]"
  IC50 (nM): 3.4
- MOLECULE: "COc1cc(C(=O)NCCN2CCOCC2)ccc1Nc1nccc(Oc2ccc(NC(=O)Nc3cc(C(C)C)nn3-c3ccc(C)cc3)c3ccccc23)n1 [Example 36]"
  IC50 (nM): 82.3
- MOLECULE: "Cc1ccc(-n2nc(C(C)(C)C)cc2NC(=O)Nc2ccc(Oc3ccnc(Nc4cccc(C(N)=O)c4)n3)c3ccccc23)cc1 [Example 2]"
  IC50 (nM): 1
- MOLECULE: "COc1ccc(-n2nc(C(C)C)cc2NC(=O)Nc2ccc(Oc3ccnc(Nc4cc(OC)cc(C(=O)NCCO)c4)n3)c3ccccc23)cc1 [Example 65]"
  IC50 (nM): 8.3
- MOLECULE: "Cc1ccc(-n2nc(C(C)(C)C)cc2NC(=O)Nc2ccc(Oc3ccnc(Nc4cc(C)cc(C(N)=O)c4)n3)c3ccccc23)cc1 [Example 40]"
  IC50 (nM): 0.7
- MOLECULE: "COc1cc(Nc2nccc(Oc3ccc(NC(=O)Nc4cc(C(C)(C)C)nn4-c4ccc(C)cc4)c4ccccc34)n2)cc(C(=O)NCCN2CCOCC2)c1 [Example 52]"
  IC50 (nM): 5
- MOLECULE: "COc1ccc(C(=O)NCCN(C)C)cc1Nc1nccc(Oc2ccc(NC(=O)Nc3cc(C(C)C)nn3-c3ccc(C)cc3)c3ccccc23)n1 [Example 28]"
  IC50 (nM): 140

---

Biological target: Syk (Homo sapiens, UniProt P43405)
Assay: Syk enzyme inhibition (FRET)
Format: biochemical
Conditions: Table 4a1
pIC50: −log10 of the molar value.
Mark N for pIC50 values under 8, and Y for everything at or above.

- COMPOUND: "COc1ccc(C(=O)NCCO)cc1Nc1nccc(Oc2ccc(NC(=O)Nc3cc(C(C)(C)C)nn3-c3ccc(C)cc3)c3ccccc23)n1 [Example 33]"
  ANSWER_LABEL: "N"
- COMPOUND: "Cc1ccc(-n2nc(C(C)(C)C)cc2NC(=O)Nc2ccc(Oc3ccnc(Nc4cccc(C(=O)N5CCOCC5)c4)n3)c3ccccc23)cc1 [Example 27]"
  ANSWER_LABEL: "N"
- COMPOUND: "COCCOc1cccc(-n2nc(C(C)(C)C)cc2NC(=O)Nc2ccc(Oc3ccnc(Nc4cc(OC)cc(C(=O)NCCN5CCOCC5)c4)n3)c3ccccc23)c1 [Example 55]"
  ANSWER_LABEL: "Y"
- COMPOUND: "COc1ccc(-n2nc(C(C)C)cc2NC(=O)Nc2ccc(Oc3ccnc(Nc4cc(Cl)cc(C(=O)NCCN5CCOCC5)c4)n3)c3ccccc23)cc1 [Example 61]"
  ANSWER_LABEL: "N"
- COMPOUND: "COc1cc(C(=O)NCCN(C)C)ccc1Nc1nccc(Oc2ccc(NC(=O)Nc3cc(C(C)C)nn3-c3ccc(C)cc3)c3ccccc23)n1 [Example 35]"
  ANSWER_LABEL: "N"
